# TARGET_ENTITY: SIRT1 (Homo sapiens)
# PROTOCOL_SUMMARY: Trp mass spectrometry assay (SIRT1 activation)
# Type: biochemical
# CONDITION_SET: Trp mass spectrometry assay; EC1.5 = concentration giving 150% activation of SIRT1
# Method: Mass spectrometry based assays were used to identify modulators of SIRT1 activity. […] The peptide was labeled with the fluorophore 5TMR (excitation 540 nm/emission 580 nm) at the C-terminus. The sequence of the peptide substrate was based on p53 with several modifications. […] The Trp mass spectrometry assay was conducted as follows. […] Test compound was added at varying concentrations to this reaction mixture and the resulting reactions were monitored. […]
MEASURED_PROPERTY: Tryp AVG EC1.5 (μM)

- O=C(Nc1nnc(-c2ccncc2)s1)N1c2nc(-c3cccc(C(F)(F)F)c3)ccc2N2CC[C@H]1C2: A (EC1.5<1 μM)
- COc1cc(NC(=O)N2c3nc(-c4cccc(C(F)(F)F)c4)ccc3N3C[C@@H](O)[C@H]2C3)ncn1: B (EC1.5 1-25 μM)
- NCCCc1ccc(NC(=O)N2c3nc(-c4cccc(C(F)(F)F)c4)ccc3N3CCC[C@H]2C3)cc1-c1cnco1: A (EC1.5<1 μM)
- Cc1cncc(NC(=O)N2c3nc(-c4cccc(C(F)(F)F)c4)ccc3N3C[C@@H](O)[C@H]2C3)c1: A (EC1.5<1 μM)
- NCc1cccc(NC(=O)N2c3nc(-c4cccc(C(F)(F)F)c4)ccc3N3CC[C@H]2C3)c1: B (EC1.5 1-25 μM)
- O=C(Nc1cccc(-c2cnco2)n1)N1c2nc(-c3cccc(Cl)c3)ccc2N2C[C@@H](O)[C@H]1C2: A (EC1.5<1 μM)
- O=C1CN2C[C@H]1N(C(=O)Nc1cccc(-c3cnco3)c1)c1nc(-c3cccc(C(F)(F)F)c3)ccc12: A (EC1.5<1 μM)
- O=C(Nc1ccc(N2CCCCC2)cc1)N1c2nc(-c3cccc(C(F)(F)F)c3)ccc2N2CC[C@H]1C2: B (EC1.5 1-25 μM)
- O=C(Nc1cncc(F)c1)N1c2nc(-c3cccc(Cl)c3)ccc2N2C[C@@H](O)[C@H]1C2: B (EC1.5 1-25 μM)
- CC(C)(C)OC(=O)NCc1cccc(-c2ccc3c(n2)C(C(=O)Nc2ccncc2)[C@H]2CCN3C2)c1 (stereo partly drawn): B (EC1.5 1-25 μM)
- CC(C)(C)OC(=O)NCc1cccc(-c2ccc3c(n2)N(C(=O)Nc2ccncc2)[C@H]2CCCN3C2)c1: B (EC1.5 1-25 μM)
- CC(C)(C)OC(=O)NCc1cnnn1-c1cccc(NC(=O)N2c3nc(-c4cccc(C(F)(F)F)c4)ccc3N3CC[C@H]2C3)c1: A (EC1.5<1 μM)
- C#CCOc1cccc(NC(=O)N2c3nc(-c4cccc(C5(C(F)(F)F)N=N5)c4)ccc3N3CC[C@H]2C3)c1: A (EC1.5<1 μM)
- CC(=O)NCc1ccc(NC(=O)N2c3nc(-c4cccc(C(F)(F)F)c4)ccc3N3CCC[C@H]2C3)cc1: A (EC1.5<1 μM)
- N=C(N)NCc1ccc(NC(=O)N2c3nc(-c4cccc(C(F)(F)F)c4)ccc3N3CCC[C@H]2C3)cc1: A (EC1.5<1 μM)
- O=C(Nc1ccncc1)N1c2nc(-c3cccc(C(F)(F)F)c3)ccc2N2CC[C@@H]1C2: A (EC1.5<1 μM)
- O=C(Nc1cccc(-c2ccccn2)c1)N1c2nc(-c3cccc(C(F)(F)F)c3)ccc2N2CC[C@H]1C2: A (EC1.5<1 μM)
- Cc1noc(C)c1-c1cccc(NC(=O)N2c3nc(-c4cccc(C(F)(F)F)c4)ccc3N3CC[C@H]2C3)n1: A (EC1.5<1 μM)

###

# TARGET_ENTITY: SIRT1 (Homo sapiens, UniProt Q96EB6)
# Sequence (Q96EB6 1-747): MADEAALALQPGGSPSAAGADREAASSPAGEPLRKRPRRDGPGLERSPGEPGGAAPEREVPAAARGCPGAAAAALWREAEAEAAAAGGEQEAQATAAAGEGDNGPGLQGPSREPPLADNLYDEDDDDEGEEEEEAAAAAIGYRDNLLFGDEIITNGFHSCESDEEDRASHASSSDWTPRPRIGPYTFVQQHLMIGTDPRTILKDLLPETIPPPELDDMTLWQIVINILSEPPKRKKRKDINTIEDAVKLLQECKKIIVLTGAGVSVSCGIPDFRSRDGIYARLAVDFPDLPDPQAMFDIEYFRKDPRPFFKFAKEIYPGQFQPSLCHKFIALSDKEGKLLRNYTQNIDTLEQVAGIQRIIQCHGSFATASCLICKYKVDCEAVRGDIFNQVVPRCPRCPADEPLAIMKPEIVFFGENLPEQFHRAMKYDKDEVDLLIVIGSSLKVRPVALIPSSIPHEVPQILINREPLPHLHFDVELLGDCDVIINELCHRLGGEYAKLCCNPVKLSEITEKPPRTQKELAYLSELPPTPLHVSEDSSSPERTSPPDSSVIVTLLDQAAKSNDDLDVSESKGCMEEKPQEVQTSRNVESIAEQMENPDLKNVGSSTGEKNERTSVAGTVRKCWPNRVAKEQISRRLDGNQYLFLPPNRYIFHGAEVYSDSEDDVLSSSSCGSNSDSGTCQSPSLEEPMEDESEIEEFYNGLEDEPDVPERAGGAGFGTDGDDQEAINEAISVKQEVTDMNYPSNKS
# PROTOCOL_SUMMARY: Trp mass spectrometry assay (SIRT1 activation)
# Type: biochemical
# CONDITION_SET: Trp mass spectrometry assay; EC1.5 = concentration of test compound that results in 150% activation of SIRT1
MEASURED_PROPERTY: Tryp AVG EC1.5 (μM)

- Cn1ncc2cc(NC(=O)N3c4nc(-c5cccc(C(F)(F)F)c5)ccc4N4CC[C@H]3C4)ccc21: A (EC1.5<1 μM)
- N#Cc1cccc(-c2ccc3c(n2)N(C(=O)Nc2cccnc2)[C@@H]2CCCN3C2)c1: B (EC1.5 1-25 μM)
- O=C(Nc1ccc(F)cn1)N1c2nc(-c3cccc(OC[C@@H](O)CO)c3)ccc2N2CC[C@H]1C2: B (EC1.5 1-25 μM)
- O=C(Nc1ccncc1F)N1c2nc(-c3cccc(OC[C@@H](O)CO)c3)ccc2N2CC[C@H]1C2: B (EC1.5 1-25 μM)
- O=C(Nc1cccnc1)N1c2nc(-c3cccc(N4CCCC4)c3)ccc2N2CC[C@H]1C2: B (EC1.5 1-25 μM)
- O=C(Nc1ccc2c(c1)OCCCO2)N1c2nc(-c3cccc(C(F)(F)F)c3)ccc2N2CC[C@H]1C2: A (EC1.5<1 μM)
- Cn1ncc2cc(NC(=O)N3c4nc(-c5cccc(N6CCCC6)c5)ccc4N4CC[C@H]3C4)ccc21: A (EC1.5<1 μM)
- CC(=O)c1sc(NC(=O)N2c3nc(-c4cccc(C(F)(F)F)c4)ccc3N3CC[C@H]2C3)nc1C: A (EC1.5<1 μM)

###

# TARGET_ENTITY: SIRT1 (Homo sapiens)
# PROTOCOL_SUMMARY: Trp mass spectrometry assay (SIRT1 activation)
# Format: biochemical
# CONDITION_SET: concentration of test compound that results in 150% activation of SIRT1; Trp peptide substrate
MEASURED_PROPERTY: Tryp AVG EC1.5 (μM)

- O=C(Nc1cccnc1)N1c2nc(-c3cccc(Cl)c3)ccc2N2CCC1CC2 [Example 496]: A (EC1.5<1 μM)
- O=C(Nc1cccc(-c2cnco2)c1)N1c2nc(N3CCCC(C(F)(F)F)C3)ccc2N2CCC[C@H]1C2 (stereo partly drawn) [Example 285]: A (EC1.5<1 μM)
- O=C(Nc1ccncc1F)N1c2nc(N3CCCC(C(F)(F)F)C3)ccc2N2CCC[C@H]1C2 (stereo partly drawn) [Example 291]: B (EC1.5 1-25 μM)
- N#Cc1cncc(-c2ccc3c(n2)N(C(=O)Nc2ccccn2)[C@H]2CCCN3C2)c1 [Example 557]: A (EC1.5<1 μM)
- Cc1cc(-c2ccc3c(n2)N(C(=O)Nc2cnn(C)c2)[C@H]2CCN3C2)ccn1 [Example 482]: B (EC1.5 1-25 μM)
- O=C(NCc1ccccc1)N1c2nc(-c3cccc(C(F)(F)F)c3)ccc2N2CC[C@H]1C2 [Example 597]: B (EC1.5 1-25 μM)
- Cc1cncc(-c2ccc3c(n2)N(C(=O)Nc2cncc(F)c2)[C@H]2CCCN3C2)c1 [Example 509]: A (EC1.5<1 μM)
- O=C(Nc1ccncn1)N1c2nc(N3CCCNCC3)ccc2N2CCC[C@H]1C2 [Example 420]: C (EC1.5>25 μM)
- CC(C)n1cc(-c2ccc3c(n2)N(C(=O)Nc2cccnc2)[C@H]2CCN3C2)cn1 [Example 494]: B (EC1.5 1-25 μM)
- O=C(Nc1cncc(F)c1)N1c2nc(-c3ccnc(N4CC[C@@H](F)C4)c3)ccc2N2CC[C@H]1C2 [Example 464]: B (EC1.5 1-25 μM)
- O=C(Nc1cccc(C2(C(F)(F)F)N=N2)c1)N1c2nc(-c3cccc(C(F)(F)F)c3)ccc2N2CC[C@H]1C2 [Example 315]: B (EC1.5 1-25 μM)
- Cn1nccc1-c1ccc2c(n1)N(C(=O)Nc1cccnc1)[C@H]1CCN2C1 [Example 524]: B (EC1.5 1-25 μM)
- O=C(Nc1ccncn1)N1c2nc(-c3cccc(Cl)c3)ccc2N2CC[C@@H]1C2 [Example 234]: B (EC1.5 1-25 μM)
- O=C1OC2(c3ccc(O)cc3Oc3cc(O)ccc32)c2ccc(NC(=S)NCc3cn(-c4cccc(NC(=O)N5c6nc(-c7cccc(C(F)(F)F)c7)ccc6N6CC[C@H]5C6)c4)nn3)cc21 [Example 608]: C (EC1.5>25 μM)
- O=C(Nc1cnccn1)N1c2nc(-c3cccc(Cl)c3)ccc2N2CCC1CC2 [Example 543]: B (EC1.5 1-25 μM)
- O=C(Nc1cncc(F)c1)N1c2nc(N3CCCC(C(F)(F)F)C3)ccc2N2CCC[C@H]1C2 (stereo partly drawn) [Example 290]: A (EC1.5<1 μM)
- CN(C)Cc1cccc(-c2ccc3c(n2)N(C(=O)Nc2ccccn2)[C@H]2CCN3C2)c1 [Example 343]: B (EC1.5 1-25 μM)
- O=C(Nc1ccccn1)N1c2nc(-c3ccnc(N4CC[C@@H](F)C4)c3)ccc2N2CC[C@H]1C2 [Example 448]: B (EC1.5 1-25 μM)
- CC(C)(C)OC(=O)NCc1cn(-c2cccc(NC(=O)N3c4nc(-c5cccc(C(F)(F)F)c5)ccc4N4CC[C@H]3C4)c2)nn1 [Example 605]: A (EC1.5<1 μM)
- O=C(NCCc1ccncc1)N1c2nc(-c3cccc(C(F)(F)F)c3)ccc2N2CC[C@H]1C2 [Example 613]: B (EC1.5 1-25 μM)
- O=C(O)c1cc(NC(=S)NCc2ccc(NC(=O)N3c4nc(-c5cccc(C(F)(F)F)c5)ccc4N4CCC[C@H]3C4)cc2)ccc1-c1c2ccc(=O)cc-2oc2cc(O)ccc12 [Example 563]: A (EC1.5<1 μM)
- Cc1nc(NC(=O)N2c3nc(-c4cccc(Cl)c4)ccc3N3CCC2CC3)sc1C [Example 569]: B (EC1.5 1-25 μM)
- COc1cncc(NC(=O)N2c3nc(N4CCCC(C(F)(F)F)C4)ccc3N3CCC[C@@H]2C3)c1 (stereo partly drawn) [Example 309]: B (EC1.5 1-25 μM)
- O=C(Nc1ccncn1)N1c2nc(-c3cncc(C(F)(F)F)c3)ccc2N2CC[C@H]1C2 [Example 276]: A (EC1.5<1 μM)
